Below is a list of entries, each paired with its recorded normalized growth value.
assay: chemical genetic growth profiling, strain panel (AID 1159580);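 note: tested at 20 µM; growth read once vehicle control cultures reached saturation at 30 °C; 1 = growth at the plate median or of vehicle wells; lower values mean less growth of the strain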
test_settings: S. cerevisiae deletion strains, growth OD, locus YOR316C, strain cot1, active compounds read low
Hit rate of the full screen: of about 5,500 compounds, about 2,000 (36%) were called active. Not shown: some 18% with an inconclusive outcome. The list shows a part of the results.
Enter a number only.

Qu. Item under review: O=C(O)CCCc1ccc(N(CCCl)CCCl)cc1 . Reported normalized growth?
Ans. 0.976

New cases:
Qu. Item under review: CCCCC[C@H]1C(=O)O[C@H](C)[C@H](NC(=O)c2cccc(NC=O)c2O)C(=O)O[C@@H](C)[C@@H]1OC(=O)CC(C)C . Reported normalized growth?
Ans. 0.945

Qu. Next: O=C(O)CCCc1ccccc1
Ans. 0.998

Qu. Next: CCC(C)C(=O)O[C@@H]1C[C@@]2(C)[C@H](c3ccoc3)OC(=O)CC23OC2(C)O[C@]14[C@]1(C)[C@@H](CC(=O)OC)C5(C)CC1(O)[C@](O)(C5OC(=O)C1(C)OC1C)[C@@H](OC(C)=O)[C@]34O2 (stereo partly drawn)
Ans. 1.02

====

assay: chemical genetic growth profiling, strain panel (AID 1159580)
test_settings: S. cerevisiae deletion strains, growth OD, locus YLR320W, strain mms22
Out of some 5,500 compounds screened, about 2,000 (36%) were called active. Roughly 18% stayed inconclusive and do not appear here. No stated cut-off is given here; in the data, active means normalized growth mostly below about 0.91 (no sharp cut-off); inconclusive means no clear call, values can overlap the other calls; inactive means mostly above about 0.92. This is one part of the list.
Parameter call: string, one of label 1 for active, label 0 for inactive

Record excerpt, results attached:
Qu. // param item: CC(=O)Oc1cc(OC(C)=O)c2c(c1)O[C@H](c1ccc(OC(C)=O)c(OC(C)=O)c1)[C@@H](OC(C)=O)C2 ; yields the recorded call
Ans. label 0

Qu. Next: N[C@@H](Cc1ccc(N(CCCl)CCCl)cc1)C(=O)O
Ans. label 0

Qu. Next: O=C(Oc1cc(OC(=O)c2ccccc2)c2c(c1)O[C@H](c1ccc(OC(=O)c3ccccc3)c(OC(=O)c3ccccc3)c1)[C@@H](OC(=O)c1ccccc1)C2)c1ccccc1
Ans. label 0

Qu. Next: CC(=O)Oc1cc(OC(C)=O)c2c(c1)O[C@H](c1ccc(OC(C)=O)c(OC(C)=O)c1)[C@H](OC(C)=O)C2
Ans. label 0

New cases:
Qu. // param item: O=c1cccc2ccc(O)c(O)c2c1O ; yields the recorded call
Ans. label 1

Qu. Next: O=C(O[C@@H]1Cc2c(O)cc(O)cc2O[C@@H]1c1ccc(O)c(O)c1)c1cc(O)c(O)c(O)c1
Ans. label 0

====

Below is a list of entries, each paired with its recorded normalized growth value.
assay: chemical genetic growth profiling, strain panel (AID 1159580)
test_settings: S. cerevisiae deletion strains, growth OD, locus YEL037C, strain rad23, active compounds read low
Hit rate of the full screen: of about 5,500 compounds, about 2,000 (36%) were called active. Another 18% or so got no clear call; they are omitted. The list shows a part of the results.
Enter a number only.

Qu. Item under review: Clc1ccc(C(OCCN2CCCCC2)c2ccccc2)cc1 (stereo not given) . Reported normalized growth?
Ans. 1.02

Qu. Next: CN1C2C[C@H](OC(=O)[C@H](CO)c3ccccc3)C[C@H]1[C@@H](O)C2
Ans. 1.01

Qu. Next: CN(C)CCCC1(c2ccc(F)cc2)OCc2cc(C#N)ccc21 (stereo not given)
Ans. 1

Qu. Next: O=C1NCC2(CCN(CCc3ccccc3)CC2)O1
Ans. 0.982

Qu. Next: CN(C)CCN(Cc1cccs1)c1ccccn1
Ans. 1.01

====

assay: chemical genetic growth profiling, strain panel (AID 1159580)
test_settings: S. cerevisiae deletion strains, growth OD, locus YMR205C, strain PFK2, active compounds read low
The campaign covered roughly 5,500 compounds. About 2,000 (36%) were called active. Not shown: some 18% with an inconclusive outcome. The list shows a part of the results.
Below is a list of entries, each paired with its recorded normalized growth value.
Enter a number only.

Qu. Item under review: O=C(O[C@@H]1Cc2c(O)cc(O)cc2O[C@@H]1c1cc(O)c(O)c(O)c1)c1cc(O)c(O)c(O)c1 . Reported normalized growth?
Ans. 0.821

Qu. Next: CC[C@@H](C(=O)C(C)[C@@H](O)[C@H](C)CCc1ccc(C)c(O)c1C(=O)O)C1OC(CC)(C2CC[C@](O)(CC)[C@H](C)O2)C[C@@H]1C (stereo not given in full)
Ans. 1.04

Qu. Next: O=c1cccc2ccc(O)c(O)c2c1O
Ans. 0.722

Qu. Next: CC(=O)Oc1cc(OC(C)=O)c2c(c1)O[C@H](c1ccc(OC(C)=O)c(OC(C)=O)c1)[C@H](OC(C)=O)C2
Ans. 0.992

Qu. Next: COc1ccc(C(=O)CC(=O)O)c2c1C=CC(C)(C)O2
Ans. 1.01

New cases:
Qu. Item under review: COc1cc2nc(N(C)CCCNC(=O)C3CCCO3)nc(N)c2cc1OC (stereo not given) . Reported normalized growth?
Ans. 0.993

Qu. Next: COC(=O)c1cc(=O)c(O)c2c(O)c(O)ccc2c1
Ans. 0.987

Qu. Next: O=C(Oc1cc(O)cc2c1C[C@@H](OC(=O)c1cc(O)c(O)c(O)c1)[C@@H](c1cc(O)c(O)c(O)c1)O2)c1cc(O)c(O)c(O)c1
Ans. 1.02

Qu. Next: Nc1nc(=S)c2[nH]cnc2[nH]1
Ans. 0.995

Qu. Next: O=C(O[C@@H]1Cc2c(O)cc(O)cc2O[C@@H]1c1ccc(O)c(O)c1)c1cc(O)c(O)c(O)c1
Ans. 1.03

====

Below is a list of entries, each paired with its recorded normalized growth value.
assay: chemical genetic growth profiling, strain panel (AID 1159580);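 note: tested at 20 µM; growth read once vehicle control cultures reached saturation at 30 °C; 1 = growth at the plate median or of vehicle wells; lower values mean less growth of the strain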
test_settings: S. cerevisiae deletion strains, growth OD, locus YGL227W, strain vid30, active compounds read low
In all, about 5,500 compounds went through this assay and about 2,000 (36%) were called active. About 18% were inconclusive and are not listed. The list shows a part of the results.
Enter a number only.

Qu. Item under review: CCC[C@H](N[C@@H](C)C(=O)N1[C@H](C(=O)O)C[C@@H]2CCCC[C@@H]21)C(=O)OCC . Reported normalized growth?
Ans. 1.02

New cases:
Qu. Item under review: CN(C)CCN(Cc1ccccc1)c1ccccn1 . Reported normalized growth?
Ans. 1.01

Qu. Next: CNCCC(Oc1ccc(C(F)(F)F)cc1)c1ccccc1 (stereo unspecified)
Ans. 0.982

Qu. Next: C=CCc1ccc(O)c(OC)c1
Ans. 0.994

Qu. Next: CN1CC(=O)N=C1N
Ans. 1.02

Qu. Next: Cc1ncc(CNC(=O)N(CCCl)N=O)c(N)n1
Ans. 1.01

Qu. Next: COc1ccc(CN(CCN(C)C)c2ccccn2)cc1
Ans. 1.01

====

Below is a list of entries, each paired with its recorded normalized growth value.
assay: chemical genetic growth profiling, strain panel (AID 1159580);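 note: tested at 20 µM; growth read once vehicle control cultures reached saturation at 30 °C; 1 = growth at the plate median or of vehicle wells; lower values mean less growth of the strain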
test_settings: S. cerevisiae deletion strains, growth OD, locus YDR159W, strain sac3, active compounds read low
Hit rate of the full screen: of about 5,500 compounds, about 2,000 (36%) were called active. Another 18% or so got no clear call; they are omitted. The list shows a part of the results.
Enter a number only.

Consider the reported normalized growth for these compounds:
Qu. Item under review: COc1ccc([C@H]2Oc3c(I)c(OC)cc(OC)c3C[C@@H]2O)cc1OC . Reported normalized growth?
Ans. 0.98

Qu. Next: CC(=O)O[C@H]1C[C@@H](OC(C)=O)C(C)(C)C2CC(=O)[C@]3(C)C(CC[C@@]4(C)[C@H](C(=O)O)OC(=O)C5OC543)[C@]21C (stereo partly drawn)
Ans. 1.03

Qu. Next: COc1ccc2c(c1)OC1(O)COc3cc(OC)c(OC)cc3C1=C2 (stereo not drawn)
Ans. 0.897

Qu. Next: C/C=C(\C)C(=O)O[C@H]1C[C@@H](OC(C)=O)[C@@]2(C(=O)OC)CO[C@@H]3C2[C@]12CO[C@](O)(C(=O)OC)[C@H]2[C@](C)(C12O[C@@]1(C)[C@H]1C[C@@H]2OC2OC=C[C@@]21O)[C@@H]3O (stereo partly drawn)
Ans. 0.994

Qu. Next: COc1ccc2c(c1)OC/C(=C/c1ccc(OC)c(OC)c1)C2=O
Ans. 0.874

New cases:
Qu. Item under review: CC[C@@]1(O)C[C@H](O)c2c(cc3c(c2O)C(=O)c2c(O)ccc(O)c2C3=O)[C@H]1C(=O)OC . Reported normalized growth?
Ans. 0.873

Qu. Next: CNC(=O)O/N=C(\C)SC
Ans. 1

Qu. Next: Cc1ncc(CNC(=O)N(CCCl)N=O)c(N)n1
Ans. 1.08

====

assay: chemical genetic growth profiling, strain panel (AID 1159580);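 note: tested at 20 µM; growth read once vehicle control cultures reached saturation at 30 °C; 1 = growth at the plate median or of vehicle wells; lower values mean less growth of the strain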
test_settings: S. cerevisiae deletion strains, growth OD, locus YNL248C, strain rpa49, active compounds read low
In all, about 5,500 compounds went through this assay and about 2,000 (36%) were called active. Another 18% or so got no clear call; they are omitted. This is one part of the list.
normalized growth strictly under 1 means MET; at 1 or over means NOT MET.

Record excerpt, results attached:
Qu. Please determine if NCCS(=O)(=O)O is below 1 in terms of normalized growth.
Ans. MET

Qu. Next: C[n+]1c2cc(N)ccc2cc2ccc(N)cc21
Ans. MET

Consider now this further molecule.
Qu. Please determine if Oc1cc(O)c2c(c1)O[C@H](c1cc(O)c(O)c(O)c1)[C@H](O)C2 is below 1 in terms of normalized growth.
Ans. NOT MET
